Attribution: the supplement of paper PMC10567573

B1: PHTF1 (parent)
chain: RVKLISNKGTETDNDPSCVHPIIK

- Variants of: B1
- Test: protein stability index of a GFP-peptide fusion (GPS, HEK-293T) (PSI 1-6); higher = more stable;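 also: lentivirally expressed fusions sorted by FACS into six bins by GFP to DsRed ratio, PSI derived from sequencing read proportions per bin multiplied by bin number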
- Protocol Conditions: c terminus: a fixed tail appended
Recorded Endpoint: protein stability index

mutant_code=T10K readout_value=3.95
mutant_code=D13P readout_value=3.26
mutant_code=D15F readout_value=2.87
mutant_code=N14S readout_value=4.56
mutant_code=D15E readout_value=3.94
mutant_code=I22R readout_value=4.53
mutant_code=V2F readout_value=3.26
mutant_code=V19N readout_value=4.38
mutant_code=T12Y readout_value=3.25
mutant_code=R1D readout_value=4.74
